Target: beta-catenin/TCF4 engagement (Homo sapiens)
Construct: expressed in transfected cells; host or cells: HEK293
Sequence (P35222 whole entry): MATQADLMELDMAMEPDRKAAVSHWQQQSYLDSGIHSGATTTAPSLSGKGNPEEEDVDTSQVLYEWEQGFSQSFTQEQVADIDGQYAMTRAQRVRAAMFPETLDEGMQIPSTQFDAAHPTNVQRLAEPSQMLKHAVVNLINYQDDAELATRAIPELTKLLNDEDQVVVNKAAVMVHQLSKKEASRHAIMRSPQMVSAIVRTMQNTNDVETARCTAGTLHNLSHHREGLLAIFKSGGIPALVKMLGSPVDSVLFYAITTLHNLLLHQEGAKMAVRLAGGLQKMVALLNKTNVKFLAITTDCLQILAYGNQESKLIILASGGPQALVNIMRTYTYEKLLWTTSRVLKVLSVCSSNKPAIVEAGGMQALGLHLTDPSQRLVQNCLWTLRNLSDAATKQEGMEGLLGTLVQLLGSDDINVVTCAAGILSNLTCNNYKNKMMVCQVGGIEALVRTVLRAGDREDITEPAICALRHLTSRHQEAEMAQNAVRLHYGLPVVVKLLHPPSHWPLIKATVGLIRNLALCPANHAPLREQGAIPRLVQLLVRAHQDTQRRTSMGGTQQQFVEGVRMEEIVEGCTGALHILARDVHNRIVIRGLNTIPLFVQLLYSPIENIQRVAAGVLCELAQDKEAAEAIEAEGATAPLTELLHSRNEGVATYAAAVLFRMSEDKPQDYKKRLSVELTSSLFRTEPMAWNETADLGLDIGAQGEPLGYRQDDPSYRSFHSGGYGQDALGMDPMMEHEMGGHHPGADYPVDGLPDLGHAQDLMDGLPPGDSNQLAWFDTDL
Experiment: Nano-BRET target engagement assay (B-cat-Halo & TCF4-Luc in HEK293 cells)
Type: cell-based
Settings: absolute IC50; read-out: NanoBRET Abs IC50
Known IC50 of a selection of compounds

| COMPOUND | OPERATOR | IC50 / µM |
| --- | --- | --- |
| CC(=O)N1CCC[C@]12CC=CCCCC1(CCCC=CCCCOC(=O)N3CC[C@@](C(=O)N[C@@H](Cc4ccccc4Cl)C(=O)N[C@@H](Cc4csc5ccccc45)C(=O)N[C@@H](CCC(N)=O)C(N)=O)(C3)NC(=O)[C@H](Cc3ccccc3)NC(=O)[C@H](Cc3ccccc3)NC(=O)[C@H](C)NC(=O)[C@H](C)NC(=O)[C@H](CN(CC(=O)O)CC(F)(F)F)NC(=O)[C@H](CC(=O)O)NC1=O)NC(=O)[C@H](CC(C)(C)C)NC(=O)[C@H](CC(=O)O)NC2=O (stereo partly drawn) [I-923] | = | 6 |
| CC(=O)N1CCC[C@]12CCCCCCC1(CCCCCCCOC(=O)N3CC[C@@](C(=O)N[C@@H](Cc4ccsc4)C(=O)N[C@@H](Cc4csc5ccccc45)C(=O)N[C@@H](CCC(N)=O)C(N)=O)(C3)NC(=O)[C@H](CC(C)C)NC(=O)[C@H](Cc3ccccc3)NC(=O)[C@H](C)NC(=O)[C@H](C)NC(=O)[C@H](CC(=O)O)NC(=O)[C@H](CC(=O)O)NC1=O)NC(=O)[C@H](CC(C)(C)C)NC(=O)[C@H](CC(=O)O)NC2=O (stereo partly drawn) [I-1822] | > | 20 |
| CC[C@@H]1NC(=O)[C@H](Cc2ccccc2)NC(=O)[C@H](C)NC(=O)C(C)(C)NC(=O)[C@H](Cc2cccc(C(=O)O)c2)NC(=O)[C@H](CC(=O)O)NC(=O)C2(CCCC=CCCCOC(=O)N3CC[C@@](C(=O)N[C@@H](Cc4ccccc4C(F)(F)F)C(=O)N[C@@H](Cc4csc5ccccc45)C(=O)N[C@@H](CCC(=O)N(C)C)C(=O)N[C@@H](C)C(N)=O)(C3)NC1=O)CCCC=CC[C@]1(CCCN1C(C)=O)C(=O)N[C@@H](CC(=O)O)C(=O)N[C@@H](CC(C)(C)C)C(=O)N2 (stereo partly drawn) [I-2468] | = | 6.2 |
| CC(=O)N1CCC[C@]12CC=CCCCC1(CCCC=CCCCOC(=O)N3CC[C@@](C(=O)N[C@@H](Cc4ccccc4C(F)(F)F)C(=O)N[C@@H](Cc4csc5ccccc45)C(=O)N[C@@H](CCC(=O)N4CCOCC4)C(N)=O)(C3)NC(=O)[C@H](CCC(=O)N3CCOCC3)NC(=O)[C@H](Cc3ccccc3)NC(=O)[C@H](C)NC(=O)[C@H](C)NC(=O)[C@H](Cc3cccc(C(=O)O)c3)NC(=O)[C@H](CC(=O)O)NC1=O)NC(=O)[C@H](CC(C)(C)C)NC(=O)[C@H](CC(=O)O)NC2=O (stereo partly drawn) [I-2546] | = | 3.5 |
| CC[C@H](C)[C@H](NC(=O)[C@H](CC(C)C)NC(=O)[C@H](CCC(N)=O)NC(=O)[C@H](Cc1csc2ccccc12)NC(=O)[C@H](Cc1ccccc1C(F)(F)F)NC(=O)[C@]12CCN(C1)C(=O)OCCCC=CCCCC1(CCCC=CC[C@]3(CCCN3C(C)=O)C(=O)N[C@@H](CC(=O)O)C(=O)N[C@@H](CC(C)(C)C)C(=O)N1)C(=O)N[C@@H](CC(=O)O)C(=O)N[C@@H](Cc1cccc(C(=O)O)c1)C(=O)N[C@@H](C)C(=O)N[C@@H](C)C(=O)N[C@@H](Cc1ccccc1)C(=O)N[C@@H](CC(C)C)C(=O)N2)C(N)=O (stereo partly drawn) [I-2385] | = | 4 |
| CC(=O)N1CCC[C@]12CC=CCCCC1(CCCC=CCCCOC(=O)N3CC[C@@](C(=O)N[C@@H](Cc4ccsc4)C(=O)N[C@@H](Cc4csc5ccccc45)C(=O)N[C@@H](CO)C(N)=O)(C3)NC(=O)[C@H](CC(C)C)NC(=O)[C@H](Cc3ccccc3)NC(=O)[C@H](C)NC(=O)[C@H](C)NC(=O)[C@H](Cc3ccccc3C(=O)O)NC(=O)[C@H](CC(=O)O)NC1=O)NC(=O)[C@H](CC(C)(C)C)NC(=O)[C@H](CC(=O)O)NC2=O (single isomer, unassigned) [I-1667] | = | 5.6 |
| CC(=O)N1CCC[C@]12CC=CCCCC1(CCCC=CCCCCCC[C@@](C)(C(=O)N[C@@H](Cc3ccsc3)C(=O)N[C@@H](Cc3csc4ccccc34)C(=O)N[C@@H](CCC(N)=O)C(N)=O)NC(=O)[C@H](CC(N)=O)NC(=O)[C@H](Cc3ccccc3)NC(=O)[C@H](C)NC(=O)[C@H](C)NC(=O)[C@H](CN(CCC(F)(F)F)CC(=O)O)NC(=O)[C@H](CC(=O)O)NC1=O)NC(=O)[C@H](CC(C)(C)C)NC(=O)[C@H](CC(=O)O)NC2=O (stereo partly drawn) [I-1625] | = | 29.3 |
| CC(=O)N1CCC[C@]12CC=CCCCC1(CCCC=CCCCCCC[C@@](C)(C(=O)N[C@@H](Cc3ccccc3)C(=O)N[C@@H](Cc3csc4ccccc34)C(=O)N[C@@H](CCC(N)=O)C(N)=O)NC(=O)[C@H](CCC(N)=O)NC(=O)[C@H](Cc3ccccc3)NC(=O)[C@H](C)NC(=O)[C@H](C)NC(=O)[C@H](CCC(=O)O)NC(=O)[C@H](CC(=O)O)NC1=O)NC(=O)[C@H](CC(N)=O)NC(=O)[C@H](CC(=O)O)NC2=O (stereo partly drawn) [I-1532] | > | 20 |
| CC(=O)N1CCC[C@]12CC=CCCCC1(CCCC=CCCCOC(=O)N3CC[C@@](C(=O)N[C@@H](Cc4ccccc4Cl)C(=O)N[C@@H](Cc4csc5ccccc45)C(=O)N[C@@H](CO)C(N)=O)(C3)NC(=O)[C@H]([C@@H](C)O)NC(=O)[C@H](Cc3ccccc3)NC(=O)[C@H](CC(C)C)NC(=O)[C@H](C)NC(=O)[C@H](CC(=O)O)NC(=O)[C@H](CC(=O)O)NC1=O)NC(=O)[C@H](Cc1ccccc1)NC(=O)[C@H](CC(=O)O)NC2=O (stereo partly drawn) [I-1157] | > | 20 |
